# Tested on: HCC-2998 colon
# protocol.text: NCI-60 one-dose screen, 48 h (100 = growth as untreated, 0 = no growth, -100 = all killed)
# condition.details: 10 µM unless noted
About 83,000 compounds went through this panel and 20% of them were active in at least one assay; those are over-represented in the sample as a whole.
Property: growth; scope: individual molecules
Use % as the unit, but write only the number.

{"columns": ["molecule", "test.system", "observable", "result.value"],
 "data": [
  ["Cc1ccc(-c2nn(C)c(=O)c3noc(-c4ccc(C)cc4)c23)cc1", "HCC-2998 colon", "growth", 70.8],
  ["COc1ccc(/C=C/c2c(C(=O)/C=C/c3ccc(C(F)(F)F)cc3)c(C)nc3ccccc23)cc1", "HCC-2998 colon", "growth", -77],
  ["CC([C@H]1CCC2C3CCC4C(=O)C(NC=O)=CC[C@]4(C)C3CC[C@@]21C)N(C)C (some centres not stated)", "HCC-2998 colon", "growth", 19],
  ["N#Cc1c(Nc2cccc(Cl)c2)sc(C(=O)c2cc3cc(Cl)ccc3o2)c1N", "HCC-2998 colon", "growth", 105],
  ["CCCCNC(=O)Oc1ccc(/C(=C(\\C)c2ccc(Cl)cc2)c2ccc(OCCN3CCCCC3)cc2)cc1", "HCC-2998 colon", "growth", 87.8]
]}

growth for CCCCCCNC(=O)Oc1ccc(/C(=C(\C)c2ccc(Cl)cc2)c2ccc(OCCN3CCCCC3)cc2)cc1 is 62.9

growth for NS(=O)(=O)c1ccc(N=Nc2ccc(-c3nn4cc(-c5ccccc5)nc4s3)cc2)cc1 is 104

growth for COc1ccc(C2=Nn3c(nnc3-c3cc(Cl)cc(Cl)c3Cl)SC2)cc1 is -57.9
